Origin of values: the supplement of paper PMC10567573

Documented protein stability index across a set of variants
B1: NR2F2 (parent)
chain: NIPFFPDLQITDQVALLRLTWSEL

Variants of: B1
ASSAY_DETAILS: protein stability index of a GFP-peptide fusion (GPS, HEK-293T) (PSI 1-6); higher = more stable;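 further: lentivirally expressed fusions sorted by FACS into six bins by GFP to DsRed ratio, PSI derived from sequencing read proportions per bin multiplied by bin number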
RUN_PARAMETERS: c terminus: a fixed tail appended
Could you keep your reply to the number by itself?

Before answering, review these 3 worked examples.
>>> df
   sequence_change             test_readout  measured_result
0              L8E  protein stability index             2.11
1             L19F  protein stability index             2.73
2             Q13S  protein stability index             2.33

Task: I have this variant here, `Q9W` , and I need its recorded protein stability index.
Output: 2.96

Task: Now consider `L24P` .
Output: 1.88

Task: Let us now turn to `S22L`
Output: 3.32

Task: Param item: `E23H`
Output: 3.17

Task: Moving on to the next variant: `L24K`
Output: 2.25

Task: And `L24S` ?
Output: 1.9

Task: Now the variant `D7T`
Output: 4.43
